Target: T1, CD137 protein (UniProt Q07011 24-186, limits assumed)
T1 construct: also called CD137 antigen; CD137 receptor
T1 sequence (Q07011 24-186 limits assumed): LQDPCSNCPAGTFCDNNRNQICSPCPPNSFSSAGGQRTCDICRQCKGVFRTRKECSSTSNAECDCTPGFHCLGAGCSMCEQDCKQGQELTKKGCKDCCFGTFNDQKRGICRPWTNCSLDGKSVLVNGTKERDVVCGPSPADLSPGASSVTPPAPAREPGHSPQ
Test: BLI (Octet Red 96), antibody on anti-human Fc sensors, CD137 protein in solution, 1:1 model
Description: KD Measurements of CD137 Antigen Binding were made according to the protocol described in Example 2 above. The chimeric and humanized antibodies were tested in an antigen-binding assay on Octet Red 96 to estimate binding kinetics. Antibodies were loaded onto anti-human Fc (AHC) biosensors. Loaded sensors were dipped into a serial dilution of CD137 protein (300 nM, 1:3 down, 7 points) in assay buffer (PBS with 0.1% BSA, 0.02% Tween-20 (pH 7.2)).
QUANTITY: koff (s⁻¹)
Numeric answer only, unit s⁻¹ assumed.

[in] Param item = humanized anti-CD137 antibody clone 3713 (IgG4 S228P/kappa) (antibody, V domains shown) VH: QVQLVQSGAEVKKPGASVKVSCKASGYTFAGFEMHWVRQAPGQGLEWMGAIDPKTGGTDYNQKFKDRVTMTRDTSISTAYMELSRLRSDDTAVYYCARDLGYFDVWGQGTLVTVSS VL: DIQMTQSPSSLSASVGDRVTITCRASQDIRSNLNWYQQKPGGAVKLLIYYTSRLHSGVPSRFSGSGSGTDYTLTISSLQPEDFATYFCQQSEKLPRTFGGGTKLEIRR ; retrieve measured koff.
[out] 0.0011

[in] Param item = humanized anti-CD137 antibody clone 3712 (IgG4 S228P/kappa) (antibody, V domains shown) VH: QVQLVQSGAEVKKPGASVKVSCKASGYTFAGFEMHWVRQAPGQGLEWMGAIDPKTGGTDYNQKFKDRVTMTRDTSISTAYMELSRLRSDDTAVYYCARDLGYFDVWGQGTLVTVSS VL: DIQMTQSPSSLSASVGDRVTITCRASQDIRSNLNWYQQKPGGAVKLLIYYTSRLHSGVPSRFSGSGSGTDYTLTISSLQPEDFATYFCQQSEKLPRTFGGGTKVEIRR ; retrieve measured koff.
[out] 0.0031

[in] Param item = humanized anti-CD137 antibody clone 3711 (IgG4 S228P/kappa) (antibody, V domains shown) VH: QVQLVQSGAEVKKPGASVKVSCKASGYTFAGFEMHWVRQAPGQGLEWMGAIDPKTGGTDYNQKFKDRVTMTRDTSISTAYMELSRLRSDDTAVYYCARDLGYFDVWGQGTLVTVSS VL: DIQMTQSPSSLSASVGDRVTITCRASQDIRSNLNWYQQKPGKAPKLLIYYTSRLHSGVPSRFSGSGSGTDFTLTISSLQPEDFATYYCQQSEKLPRTFGGGTKVEIRR ; retrieve measured koff.
[out] 0.00046
